# target or system: Pro-neuregulin-1, membrane-bound isoform (Homo sapiens) (UniProt Q02297)
# Sequence (Q02297 whole entry, looked up, canonical isoform): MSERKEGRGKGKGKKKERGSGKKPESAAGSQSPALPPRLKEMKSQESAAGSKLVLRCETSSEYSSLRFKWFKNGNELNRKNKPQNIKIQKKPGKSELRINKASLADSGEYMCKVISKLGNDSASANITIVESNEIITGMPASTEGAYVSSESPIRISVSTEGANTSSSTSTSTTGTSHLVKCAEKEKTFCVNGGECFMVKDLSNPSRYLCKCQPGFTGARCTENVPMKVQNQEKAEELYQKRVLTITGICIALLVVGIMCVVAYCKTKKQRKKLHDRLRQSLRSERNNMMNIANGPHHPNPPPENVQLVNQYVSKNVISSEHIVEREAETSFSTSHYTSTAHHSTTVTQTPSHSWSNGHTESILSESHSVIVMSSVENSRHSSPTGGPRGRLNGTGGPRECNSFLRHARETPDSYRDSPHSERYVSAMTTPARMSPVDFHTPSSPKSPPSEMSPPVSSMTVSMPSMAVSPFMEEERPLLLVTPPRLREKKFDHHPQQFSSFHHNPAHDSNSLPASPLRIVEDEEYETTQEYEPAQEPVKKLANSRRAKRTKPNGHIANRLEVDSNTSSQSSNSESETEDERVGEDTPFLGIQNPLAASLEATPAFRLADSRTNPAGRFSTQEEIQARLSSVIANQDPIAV
# protocol notes: small molecules binding neuregulin-1 protein – biochemical, small-molecule microarray, fluorescence 635/667, psychiatric disease protein project, primary screen (AID 1075);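 also: score combines 667 nm spot fluorescence with signal to noise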
# recorded conditions: NRG1 binding, 635 nm fluorescence, higher = more signal
I'd appreciate it if you could supply composite z-score values for the items below.

Quick batch: composite z-score for everything below.
1. C=CCC(OC(C)=O)[C@@H]1[C@@H](N(Cc2cc3ccccc3o2)C(=O)c2ccc(C)cc2)c2cc(OCCCO)ccc2N1C(=O)c1ccc(-c2ccccc2)cc1 (stereo partly specified)
2. CS(=O)(=O)CCOC(=O)C1=CC(c2ccc(CO)cc2)=CC(c2cccs2)N(Cc2cccc(OC(F)(F)F)c2)C=C1C(=O)OCCS(C)(=O)=O (stereo unspecified)
3. C=C(C(=O)CC[C@@H](OC(C)=O)c1ccc(OCCO)cc1)C(C)C

[-0.158, 1.63, 0.845]

Quick batch: composite z-score for everything below.
1. COC(=O)c1c2oc(c1C(=O)OC)C(=O)N[C@H](Cc1ccccc1)Cn1nncc1C1(CCCCC1)NC(=O)N[C@H](CO)CC2
2. O=C(N1CCCCC1)[C@]1(CCS(=O)(=O)c2ccccc2)N=C(c2ccc(OCCCO)cc2)O[C@@H]1c1ccccc1
3. C=C(C(=O)CC[C@@H](OC(=O)c1cccnc1)c1ccc(CO)o1)C(C)C
4. COCCCNC(=O)[C@@]1(Cc2ccccc2I)c2ccccc2C(=O)N(Cc2ccccc2)[C@H]1c1ccc(CO)cc1
5. CC(C)(C)OC(=O)CC[C@@]1(C(=O)N2CCOCC2)N=C(c2ccc(OCCCO)cc2)O[C@@H]1c1ccccc1N=[N+]=[N-]
6. COc1cc2c(cc1O)C(c1ccc(CN3CCCC3)cc1)N(Cc1sc3ccccc3c1Cl)CC2 (stereo unspecified)
7. O=C1C2C=CC(C(O)c3ccc(B(O)O)cc3)N(Nc3ccc([N+](=O)[O-])cc3)C2C(=O)N1c1ccccc1 (stereo unspecified)
8. CC(C)C(=C=CC[C@H](O)c1ccccc1OCCO)CCO

1: -0.0781; 2: 1.49; 3: 1.08; 4: 0.542; 5: 1.75; 6: 0.072; 7: 1.56; 8: 0.319
